Give measured % Ctrl, ABL1(T315I)-phosphorylated for each item. Keep answers brief.
target: kinases (Homo sapiens, UniProt P00519, T315I); construct: purchased Eurofins/DiscoveRx; host or cells: E. coli BL21-derived host (T7 phage display) for most kinases; HEK-293 for the rest; assay: KINOMEscan kinase binding assay (Eurofins/DiscoveRx), % Ctrl; details: 1 μM; ABL1(T315I)-phosphorylated
Report as a plain number; the unit % Ctrl is understood.

Q: GET /values?readout=% Ctrl, ABL1(T315I)-phosphorylated&item= Cc1cc2c([nH]1)/C=C1\C(=O)Nc3ccc(cc31)-c1cnn(C)c1CN(C)CCN(C)C2=O [Ex. 126]
A: 0

Q: GET /values?readout=% Ctrl, ABL1(T315I)-phosphorylated&item= Cc1cc2c([nH]1)/C=C1\C(=O)Nc3ccc(nc31)-c1ccccc1OCCCNC2=O [Ex.22]
A: 100

Q: GET /values?readout=% Ctrl, ABL1(T315I)-phosphorylated&item= Cc1cc2c([nH]1)/C=C1\C(=O)Nc3ccc(cc31)-c1ccnn1CCNCCNC2=O [Ex. 43]
A: 75

Q: GET /values?readout=% Ctrl, ABL1(T315I)-phosphorylated&item= Cc1cc2c([nH]1)/C=C1\C(=O)Nc3ccc(cc31)O[C@@H](C)COCCN(C)C2=O [Ex. 92]
A: 66

---

Give measured % Ctrl, FLT3(ITD) for each item. Keep answers brief.
test system: kinases; test: KINOMEscan kinase binding assay (Eurofins/DiscoveRx), % Ctrl; conditions: target FLT3(ITD); 1 μM
Report as a plain number; the unit % Ctrl is understood.

Q: Provide the documented % Ctrl, FLT3(ITD) with kinases as the system for Cc1cc2c([nH]1)/C=C1\C(=O)Nc3cnc(cc31)-c1cn[nH]c1CNCCN(C)C2=O
A: 0.3

Q: Provide the documented % Ctrl, FLT3(ITD) with kinases as the system for Cc1nn(C)c2c1-c1ccc3c(c1)/C(=C/c1[nH]ccc1C(=O)N(C)CCCO2)C(=O)N3
A: 72

Q: Provide the documented % Ctrl, FLT3(ITD) with kinases as the system for Cc1cc2c([nH]1)/C=C1\C(=O)Nc3ccc(cc31)-c1c(noc1C)CNCCN(C)C2=O
A: 8.1

Q: Provide the documented % Ctrl, FLT3(ITD) with kinases as the system for CN1CCSCCOc2cc3c(cc2Cl)NC(=O)/C3=C\c2[nH]ccc2C1=O
A: 0.5

Q: Provide the documented % Ctrl, FLT3(ITD) with kinases as the system for Cc1cc2c([nH]1)/C=C1\C(=O)Nc3cc(Cl)c(cc31)OCCO[C@@H](C(=O)N1CCN(C)CC1)CN(C)C2=O
A: 73

Q: Provide the documented % Ctrl, FLT3(ITD) with kinases as the system for CN1CCOCCOc2cc3c(cc2Cl)NC(=O)/C3=C\c2[nH]ccc2C1=O
A: 2.5

Q: Provide the documented % Ctrl, FLT3(ITD) with kinases as the system for Cc1cc2c([nH]1)/C=C1\C(=O)Nc3ccc(cc31)-c1c(C)nn(C)c1COCCN(C)C2=O
A: 4.7

---

Give measured % Ctrl, ABL2 for each item. Keep answers brief.
target: kinases (Homo sapiens); construct: purchased Eurofins/DiscoveRx; host or cells: E. coli BL21-derived host (T7 phage display) for most kinases; HEK-293 for the rest; assay: KINOMEscan kinase binding assay (Eurofins/DiscoveRx), % Ctrl; details: target ABL2; 1 μM
Be sure to follow the number with its unit.

Q: GET /values?readout=% Ctrl, ABL2&item= CN1CCSCCOc2cc3c(cc2Cl)NC(=O)/C3=C\c2[nH]ccc2C1=O
A: 35 % Ctrl

Q: GET /values?readout=% Ctrl, ABL2&item= Cc1cc2c([nH]1)/C=C1\C(=O)Nc3ccc(cc31)-c1c(noc1C)CNCCN(C)C2=O
A: 70 % Ctrl

Q: GET /values?readout=% Ctrl, ABL2&item= Cc1cc2c([nH]1)/C=C1\C(=O)Nc3ccc(cc31)-c1c(C)nn(C)c1COCCN(C)C2=O
A: 83 % Ctrl

Q: GET /values?readout=% Ctrl, ABL2&item= CN1CCOCCOc2cc3c(cc2Cl)NC(=O)/C3=C\c2[nH]ccc2C1=O
A: 40 % Ctrl

---

target: kinases (Homo sapiens, UniProt P10721, V559D); construct: purchased Eurofins/DiscoveRx; host or cells: E. coli BL21-derived host (T7 phage display) for most kinases; HEK-293 for the rest; assay: KINOMEscan kinase binding assay (Eurofins/DiscoveRx), % Ctrl; details: target KIT(V559D); 1 μM
Sequence (P10721 26-976 V559D): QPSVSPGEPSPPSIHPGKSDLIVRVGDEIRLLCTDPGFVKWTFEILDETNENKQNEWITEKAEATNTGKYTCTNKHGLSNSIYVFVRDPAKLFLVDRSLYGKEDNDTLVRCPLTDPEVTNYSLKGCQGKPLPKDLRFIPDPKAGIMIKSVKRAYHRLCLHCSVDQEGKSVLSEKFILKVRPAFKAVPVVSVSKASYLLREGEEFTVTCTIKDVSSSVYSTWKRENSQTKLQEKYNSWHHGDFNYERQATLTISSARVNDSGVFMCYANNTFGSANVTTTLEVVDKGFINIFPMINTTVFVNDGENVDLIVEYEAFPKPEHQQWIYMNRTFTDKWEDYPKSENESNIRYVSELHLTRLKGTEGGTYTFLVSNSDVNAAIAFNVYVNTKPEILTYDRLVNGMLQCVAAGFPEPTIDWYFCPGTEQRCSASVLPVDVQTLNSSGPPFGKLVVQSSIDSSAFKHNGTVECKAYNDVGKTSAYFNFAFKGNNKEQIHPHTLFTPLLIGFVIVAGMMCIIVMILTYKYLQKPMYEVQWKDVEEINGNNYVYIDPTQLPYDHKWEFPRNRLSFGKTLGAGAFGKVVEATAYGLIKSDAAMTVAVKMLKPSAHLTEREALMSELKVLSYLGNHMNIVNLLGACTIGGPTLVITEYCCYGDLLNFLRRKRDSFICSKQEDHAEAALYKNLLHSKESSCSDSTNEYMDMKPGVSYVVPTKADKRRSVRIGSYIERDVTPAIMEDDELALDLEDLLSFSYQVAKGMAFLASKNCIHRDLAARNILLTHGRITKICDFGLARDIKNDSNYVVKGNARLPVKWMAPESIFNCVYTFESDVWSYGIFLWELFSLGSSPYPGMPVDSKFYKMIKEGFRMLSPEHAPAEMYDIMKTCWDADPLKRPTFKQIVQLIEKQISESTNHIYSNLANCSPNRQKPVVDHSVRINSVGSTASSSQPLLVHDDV
# label = Y if % Ctrl, KIT(V559D) < 80 % Ctrl else N

Q: State whether 80 % Ctrl exceeds % Ctrl, KIT(V559D) recorded for Cc1cc2c([nH]1)/C=C1\C(=O)Nc3ccc(cc31)-c1c(noc1C)CNCCN(C)C2=O .
A: N

Q: State whether 80 % Ctrl exceeds % Ctrl, KIT(V559D) recorded for CN1CCSCCOc2cc3c(cc2Cl)NC(=O)/C3=C\c2[nH]ccc2C1=O .
A: Y

Q: State whether 80 % Ctrl exceeds % Ctrl, KIT(V559D) recorded for Cc1cc2c([nH]1)/C=C1\C(=O)Nc3ccc(cc31)-c1c(C)nn(C)c1COCCN(C)C2=O .
A: Y

Q: State whether 80 % Ctrl exceeds % Ctrl, KIT(V559D) recorded for Cc1cc2c([nH]1)/C=C1\C(=O)Nc3cc(Cl)c(cc31)OCCO[C@@H](C(=O)N1CCN(C)CC1)CN(C)C2=O .
A: N

Q: State whether 80 % Ctrl exceeds % Ctrl, KIT(V559D) recorded for Cc1cc2c([nH]1)/C=C1\C(=O)Nc3cnc(cc31)-c1cn[nH]c1CNCCN(C)C2=O .
A: Y

Q: State whether 80 % Ctrl exceeds % Ctrl, KIT(V559D) recorded for CN1CCOCCOc2cc3c(cc2Cl)NC(=O)/C3=C\c2[nH]ccc2C1=O .
A: Y

Q: State whether 80 % Ctrl exceeds % Ctrl, KIT(V559D) recorded for Cc1nn(C)c2c1-c1ccc3c(c1)/C(=C/c1[nH]ccc1C(=O)N(C)CCCO2)C(=O)N3 .
A: N

---

molecular target: kinases (Homo sapiens, UniProt P00533, DEL746-750); construct: purchased Eurofins/DiscoveRx; host or cells: E. coli BL21-derived host (T7 phage display) for most kinases; HEK-293 for the rest; assay: KINOMEscan kinase binding assay (Eurofins/DiscoveRx), % Ctrl; conditions: 1 μM; EGFR(E746-A750del)
# label = t if % Ctrl, EGFR(E746-A750del) < 70 % Ctrl else f

Q: State whether 70 % Ctrl exceeds % Ctrl, EGFR(E746-A750del) recorded for Cc1cc2c([nH]1)/C=C1\C(=O)Nc3ccc(cc31)O[C@@H](C)COCCN(C)C2=O .
A: f

Q: State whether 70 % Ctrl exceeds % Ctrl, EGFR(E746-A750del) recorded for Cc1cc2c([nH]1)/C=C1\C(=O)Nc3ccc(cc31)OCCOCCNC2=O .
A: f

Q: State whether 70 % Ctrl exceeds % Ctrl, EGFR(E746-A750del) recorded for Cc1cc2c([nH]1)/C=C1\C(=O)Nc3cc(Cl)c(cc31)OCCO[C@@H](C(=O)NC1CCNCC1)CN(C)C2=O .
A: f

Q: State whether 70 % Ctrl exceeds % Ctrl, EGFR(E746-A750del) recorded for Cc1cc2c([nH]1)/C=C1\C(=O)Nc3cnc(nc31)N(C)CCCOCCN(C)C2=O .
A: f

Q: State whether 70 % Ctrl exceeds % Ctrl, EGFR(E746-A750del) recorded for Cc1cc2c([nH]1)/C=C1\C(=O)Nc3ccc(cc31)CN(C)C(=O)COCCNC2=O .
A: f

Q: State whether 70 % Ctrl exceeds % Ctrl, EGFR(E746-A750del) recorded for Cc1cc2c([nH]1)/C=C1\C(=O)Nc3ccc(nc31)-c1ccccc1OCCCNC2=O .
A: f

Q: State whether 70 % Ctrl exceeds % Ctrl, EGFR(E746-A750del) recorded for Cc1cc2c([nH]1)/C=C1\C(=O)Nc3cc(Cl)c(cc31)OCCO[C@@H](C(=O)N(C)C)CN(C)C2=O .
A: f

Q: State whether 70 % Ctrl exceeds % Ctrl, EGFR(E746-A750del) recorded for Cc1cc2c([nH]1)/C=C1\C(=O)Nc3ccc(cc31)-c1cnn(C)c1CN(C)CCN(C)C2=O .
A: t

Q: State whether 70 % Ctrl exceeds % Ctrl, EGFR(E746-A750del) recorded for Cc1cc2c([nH]1)/C=C1\C(=O)Nc3ccc(cc31)-c1cnn(C)c1CNCCN(C)C2=O .
A: t

Q: State whether 70 % Ctrl exceeds % Ctrl, EGFR(E746-A750del) recorded for Cc1cc2c([nH]1)/C=C1\C(=O)Nc3cc(Cl)c(cc31)OCCO[C@@H](C(=O)N[C@@H]1CCNC1)CN(C)C2=O .
A: f

Q: State whether 70 % Ctrl exceeds % Ctrl, EGFR(E746-A750del) recorded for CNC(=O)[C@H]1CN(C)C(=O)c2cc(C)[nH]c2/C=C2\C(=O)Nc3cc(Cl)c(cc32)OCCO1 .
A: f

Q: State whether 70 % Ctrl exceeds % Ctrl, EGFR(E746-A750del) recorded for Cc1cc2c([nH]1)/C=C1\C(=O)Nc3cc(Cl)c(cc31)OCCO[C@@H](C(=O)NC1CNC1)CN(C)C2=O .
A: f

Q: State whether 70 % Ctrl exceeds % Ctrl, EGFR(E746-A750del) recorded for Cc1cc2c([nH]1)/C=C1\C(=O)Nc3cnc(cc31)-c1cnn(C)c1COCCNC2=O .
A: f

Q: State whether 70 % Ctrl exceeds % Ctrl, EGFR(E746-A750del) recorded for Cc1cc2c([nH]1)/C=C1\C(=O)Nc3ccc(cc31)OCCOCCN(C)C2=O .
A: f

Q: State whether 70 % Ctrl exceeds % Ctrl, EGFR(E746-A750del) recorded for Cc1cc2c([nH]1)/C=C1\C(=O)Nc3ccc(cc31)-c1cnn(C)c1COCCN(C)C2=O .
A: t

Q: State whether 70 % Ctrl exceeds % Ctrl, EGFR(E746-A750del) recorded for Cc1cc2c([nH]1)/C=C1\C(=O)Nc3cc(Cl)c(cc31)OCCOCCN(C)C2=O .
A: t

Q: State whether 70 % Ctrl exceeds % Ctrl, EGFR(E746-A750del) recorded for Cc1cc2c([nH]1)/C=C1\C(=O)Nc3ccc(cc31)-c1c(noc1C)COCCN(C)C2=O .
A: f

Q: State whether 70 % Ctrl exceeds % Ctrl, EGFR(E746-A750del) recorded for Cc1cc2c([nH]1)/C=C1\C(=O)Nc3ccc(cc31)-c1ccnn1CCOCCN(C)C2=O .
A: t

Q: State whether 70 % Ctrl exceeds % Ctrl, EGFR(E746-A750del) recorded for Cc1cc2c([nH]1)/C=C1\C(=O)Nc3ccc(cc31)-c1c(C)n[nH]c1CNCCN(C)C2=O .
A: t
